Tested on: THRa homodimer (NR concentration 90 nM)
Experiment: PBM binding z-score (relative to random genomic background probes); higher = stronger binding; sequences stand for … in GC…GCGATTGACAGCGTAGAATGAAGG
VALUE TYPE: PBM binding z-score
Just the number, please, no unit after it.

Observe how each entry below is paired with its result.
>>> df
                     monomer_sequence  recorded_measurement
0  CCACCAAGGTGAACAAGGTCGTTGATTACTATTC                   2.4
1  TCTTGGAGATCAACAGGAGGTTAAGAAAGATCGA                -0.452

Request: State the recorded PBM binding z-score for this entry: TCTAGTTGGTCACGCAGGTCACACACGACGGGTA
Result: 1.81

Request: Follow-up item: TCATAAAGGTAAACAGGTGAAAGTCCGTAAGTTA
Result: 0.368

Request: Follow-up item: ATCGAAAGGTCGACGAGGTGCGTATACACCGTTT
Result: -0.328
